# SYSTEM: HCV NS3/4A protease genotype 1b (Hepatitis C virus genotype 1b)
# ASSAY_COMMENT: HCV NS3/4A protease time-resolved fluorescence (TRF) assay, Ki against genotype 1b
# Type: biochemical
# PROTOCOL_CONDITIONS: IC50 [gt-1b], NS3/4A protease TRF assay, genotype 1b enzyme 0.2 nM
MEASURED_ATTRIBUTE: pIC50
Please keep in mind that pIC50 is minus log10 of the molar concentration; only the number is needed.

COc1ccc2nc(C)c3c(c2c1)CC[C@]1(C[C@H]2C(=O)N[C@]4(C(=O)NS(=O)(=O)C5(C)CC5)C[C@H]4/C=C\CCCCC[C@H](NC(=O)OC(C(C)(C)C)C(F)(F)F)C(=O)N2C1)O3 (some centres unmarked) [Example 366]; 10.64

Record request: pIC50 value, item COCCOc1ccc2nc(C)c3c(c2c1)CC[C@]1(C[C@H]2C(=O)N[C@]4(C(=O)NS(=O)(=O)C5(C)CC5)C[C@H]4/C=C\CCCCC[C@H](NC(=O)OC(C)(C)C(F)(F)F)C(=O)N2C1)O3 10.59

Another: CCc1nc2ccc(OC)cc2c2c1O[C@]1(CC2)C[C@H]2C(=O)N[C@]3(C(=O)NS(=O)(=O)C4(C)CC4)C[C@H]3/C=C\CCCCC[C@H](NC(=O)c3cc[nH]n3)C(=O)N2C1 10.80

Proceed to COc1ccc2nc(C(F)F)c3c(c2c1)CC[C@]1(C[C@H]2C(=O)N[C@]4(C(=O)NS(=O)(=O)C5(C)CC5)C[C@H]4/C=C\CCCCC[C@H](NC(=O)OC(C)C)C(=O)N2C1)O3 10.89

###

# SYSTEM: HCV NS3/4A protease genotype 1b (Hepatitis C virus genotype 1b, UniProt P26663)
# Sequence (P26663 1027-1657): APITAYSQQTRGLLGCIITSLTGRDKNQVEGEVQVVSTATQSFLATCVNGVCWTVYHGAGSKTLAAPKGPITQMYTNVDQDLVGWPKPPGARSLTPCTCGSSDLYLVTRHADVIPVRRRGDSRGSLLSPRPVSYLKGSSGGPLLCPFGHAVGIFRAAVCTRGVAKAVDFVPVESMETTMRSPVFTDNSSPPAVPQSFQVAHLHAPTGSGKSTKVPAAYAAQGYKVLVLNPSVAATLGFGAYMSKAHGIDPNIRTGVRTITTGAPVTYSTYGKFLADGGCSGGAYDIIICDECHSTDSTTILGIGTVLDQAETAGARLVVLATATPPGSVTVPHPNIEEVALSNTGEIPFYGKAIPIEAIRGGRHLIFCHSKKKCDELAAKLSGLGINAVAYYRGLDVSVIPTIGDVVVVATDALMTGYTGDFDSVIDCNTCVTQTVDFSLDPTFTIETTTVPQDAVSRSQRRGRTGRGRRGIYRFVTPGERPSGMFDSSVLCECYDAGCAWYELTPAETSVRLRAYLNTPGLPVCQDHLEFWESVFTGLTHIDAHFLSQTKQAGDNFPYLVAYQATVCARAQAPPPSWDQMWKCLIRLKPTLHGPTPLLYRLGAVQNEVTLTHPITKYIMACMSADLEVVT
# Sequence (P26663 1658-1711): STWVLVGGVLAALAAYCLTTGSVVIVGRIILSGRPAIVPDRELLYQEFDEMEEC
# ASSAY_COMMENT: HCV NS3/4A protease time-resolved fluorescence (TRF) assay, Ki against genotype 1b
# Type: biochemical
# PROTOCOL_CONDITIONS: IC50 [gt-1b] (nM), NS3/4A genotype 1b, enzyme 0.2 nM
Collected IC50 values appear next to each entry.
Report the figure in nM without appending any unit label.

CC(C)(C)COC(=O)N[C@H]1CCCCC/C=C\[C@@H]2C[C@@]2(C(=O)NS(=O)(=O)C2(C)CC2)NC(=O)[C@@H]2C[C@]3(CCc4c(c(C5CC5)nc5c(F)cccc45)O3)CN2C1=O; 0.019

Look up IC50: Cc1nc2cc(F)c(F)cc2c2c1O[C@]1(CC2)C[C@H]2C(=O)N[C@]3(C(=O)NS(=O)(=O)C4(C)CC4)C[C@H]3/C=C\CCCCC[C@H](NC(=O)OCC3(C)CC3)C(=O)N2C1 0.013

Query CC1(OC(=O)N[C@H]2CCCCC/C=C\[C@@H]3C[C@@]3(C(=O)NS(=O)(=O)C3(C)CC3)NC(=O)[C@@H]3C[C@]4(CCc5c(c(C(F)(F)F)nc6ccccc56)O4)CN3C2=O)CC1 next 0.013

###

# SYSTEM: HCV NS3/4A protease genotype 1b (Hepatitis C virus genotype 1b, UniProt P26663)
# ASSAY_COMMENT: HCV NS3/4A protease time-resolved fluorescence (TRF) assay, Ki against genotype 1b
# Assay type: biochemical
# PROTOCOL_CONDITIONS: IC50 [gt-1b], NS3/4A protease TRF assay, genotype 1b enzyme 0.2 nM
MEASURED_ATTRIBUTE: IC50 (nM)
Field format: number, assumed nM, no unit text.

Examples with their reported IC50 follow.
CC[C@H](C)OC(=O)N[C@H]1CCCCC/C=C\[C@@H]2C[C@@]2(C(=O)NS(=O)(=O)C2(C)CC2)NC(=O)[C@@H]2C[C@]3(CCc4c(c(C5CC5)nc5ccc(OC)cc45)O3)CN2C1=O; 0.024
COc1ccc2nc(C(F)(F)F)c3c(c2c1)[C@](C)(O)C[C@]1(C[C@H]2C(=O)N[C@]4(C(=O)NS(=O)(=O)C5(C)CC5)C[C@H]4/C=C\CCCCC[C@H](NC(=O)OCC(C)(C)C)C(=O)N2C1)O3; 0.015
Cc1nc2ccccc2c2c1O[C@]1(CC2)C[C@H]2C(=O)N[C@]3(C(=O)NS(=O)(=O)C4(C)CC4)C[C@H]3/C=C\CCCCC[C@H](NC(=O)OC3CCC(F)(F)C3)C(=O)N2C1 (stereo partly shown) [Example 376]; 0.013

Continue with the next compound.
Data request, read-out IC50, for CC(C)[C@H](C)OC(=O)N[C@H]1CCCCC/C=C\[C@@H]2C[C@@]2(C(=O)NS(=O)(=O)C2(C)CC2)NC(=O)[C@@H]2C[C@]3(CCc4c(c(C(F)(F)F)nc5ccc(OCCN6CCOCC6)cc45)O3)CN2C1=O 0.033
